Each entry below lists one item and its recorded IC50 value.
- System: IFNγ-Induced NO Production
- test: Nitric Oxide Suppression Assay (Suppression of IFNγ-Induced NO Production)
- Type: cell-based
- testSettings: RAW264.7; RAW 264.7 mouse macrophage cells; 2 hour pre-treatment with compound (3 μM to 0.3 nM, 10 point curve); 20 ng/mL interferon gamma, ~18 hour; Griess detection; n=2-3 in duplicates
- Protocol: RAW 264.7, a mouse macrophage cell line, was obtained from American Type Culture Collection (Manassas Va.) and maintained in the log phase of growth in Dulbecco's Modified Eagle's Medium (DMEM), 10% heat inactivated fetal calf serum and 100 units/mL antibiotic-antimycotic (AA). Cells were cultured and maintained in a humidified incubator at 37° C. under 5% CO2 and 95% air. Cells were sub-cultured every 3 days by scraping and were not used beyond passage 20. […]
readoutLabel: IC50 (nM)

INSERT INTO assay_data (compoundstructure, readoutlabel, numericresult) VALUES
  ('C[C@@H]1C(=O)C(C#N)=C[C@]2(c3ccccc3)c3n[nH]c(-c4ccc(N)nc4)c3CC[C@@H]12', 'IC50', 8.77),
  ('C[C@@H]1C(=O)C(C#N)=C[C@]2(c3ccccc3)c3nn(C)c(-c4cccc(-c5ccc(NS(C)(=O)=O)cc5)c4)c3CC[C@@H]12', 'IC50', 8.77),
  ('CC(=O)n1cc2c(n1)[C@@]1(c3ccccc3)C=C(C#N)C(=O)[C@@H](C)[C@@H]1CC2', 'IC50', 39),
  ('C[C@@H]1C(=O)C(C#N)=C[C@]2(c3ccccc3)c3nc(-c4c(F)cccc4F)ncc3CC[C@@H]12', 'IC50', 9.26);
